Source: PubChem BioAssay AID1851

- Assay Target: Cytochrome P450 3A4 (Homo sapiens)
- Method Notes: Cytochrome panel assay with activity outcomes
- Stated Conditions: recombinant CYP, pro-luciferin dealkylation, luminescence, p450-cyp3a4; series mostly up to 57.1 µM
The campaign covered roughly 16,000 compounds. About 5,100 (32%) were called active. Inconclusive results (about 25%) are left out. The call rests on the fitted dose curve; in most records, active means well fitted curve in the direction sought with a large enough effect; inconclusive means small, poorly fitted or top-dose-only effect, or effect the other way; inactive means no such curve, though single readings can be large or run the other way. The list shows a part of the results.
Labels: yes (1) (active), no (0) (inactive)

>  <Mol>
CC(C)(C)C(=O)NNC(=O)CCCOc1ccc(Cl)cc1Cl

>  <Qualitative Label>
no (0)

$$$$
>  <Mol>
NC(=NCCCCCCN=C(N)/N=C(\N)Nc1ccc(Cl)cc1)/N=C(\N)Nc1ccc(Cl)cc1

>  <Qualitative Label>
no (0)

$$$$
>  <Mol>
COc1cccc(-c2nc(Nc3ccncc3)c3ccccc3n2)c1

>  <Qualitative Label>
yes (1)

$$$$
>  <Mol>
COc1ccccc1N1CCN(C[C@@H]2CN3C(=O)N(C)c4ccccc4C3=N2)CC1

>  <Qualitative Label>
yes (1)

$$$$
>  <Mol>
O=S(=O)(c1ccc(F)cc1)n1ccc(-c2cnc(-c3ccccc3)s2)n1

>  <Qualitative Label>
yes (1)

$$$$

---

- Assay Target: Cytochrome P450 3A4 (Homo sapiens)
- Method Notes: Cytochrome panel assay with activity outcomes
- Stated Conditions: recombinant CYP, pro-luciferin dealkylation, luminescence, p450-cyp3a4; series mostly up to 57.1 µM
In all, about 16,000 compounds went through this assay and about 5,100 (32%) were called active. About 25% were inconclusive and are not listed. Calls come from the whole dose curve; as a rule, active = well fitted curve in the direction sought with a large enough effect; inconclusive = small, poorly fitted or top-dose-only effect, or effect the other way; inactive = no such curve, though single readings can be large or run the other way. The list shows a part of the results.
Labels: y for active, n for inactive

>  <Molecule>
CCC1(O)c2ccccc2-c2ncccc21 (stereo not given)

>  <Qualitative Label>
n

$$$$
>  <Molecule>
CC(=O)c1cnc2cc(C)nn2c1C

>  <Qualitative Label>
n

$$$$
>  <Molecule>
Cc1noc(C)c1CS(=O)(=O)c1ccc(Br)cc1

>  <Qualitative Label>
y

$$$$
>  <Molecule>
O=C(NCCOC(=O)c1ccc(C(=O)OCCNC(=O)c2cccnc2)s1)c1cccnc1

>  <Qualitative Label>
y

$$$$
>  <Molecule>
CN1CCc2c(sc3c2c(=O)n(-c2ccccc2)c2nncn32)C1

>  <Qualitative Label>
n

$$$$
>  <Molecule>
O=C1c2ccccc2-c2n[nH]c3cccc1c23

>  <Qualitative Label>
y

$$$$
>  <Molecule>
CCn1c(CC(=O)Nc2ccc(C)cc2)nnc1SCC(=O)Nc1nc(C)cs1

>  <Qualitative Label>
y

$$$$
>  <Molecule>
c1ccc(-c2csc3ncn4cnnc4c23)cc1

>  <Qualitative Label>
n

$$$$
>  <Molecule>
O=C(NCCCc1ccccc1)c1cccs1

>  <Qualitative Label>
n

$$$$
>  <Molecule>
CCOC(=O)CCc1c(C)nc2ncnn2c1C

>  <Qualitative Label>
n

$$$$
>  <Molecule>
NC1CCN(c2cccc(Cl)n2)CC1

>  <Qualitative Label>
n

$$$$
>  <Molecule>
Cc1nc(S(=O)(=O)NC2CCCCC2)c(C#N)c(C)c1Cl

>  <Qualitative Label>
y

$$$$
>  <Molecule>
CCOC(=O)C1=C(c2ccccc2)OC(N)=C(C#N)C1c1ccc(Cl)s1 (stereo not given)

>  <Qualitative Label>
n

$$$$
>  <Molecule>
CCC(=O)Nc1cccc(NC(=O)c2cccc([N+](=O)[O-])c2)c1

>  <Qualitative Label>
y

$$$$
>  <Molecule>
Cc1cccc(NC(=S)N2CCC(N(C)CC3CCCO3)CC2)c1C (stereo not given)

>  <Qualitative Label>
n

$$$$
>  <Molecule>
O=C(COc1cccc(NC(=O)c2cccc([N+](=O)[O-])c2)c1)c1ccc(Br)cc1

>  <Qualitative Label>
n

$$$$
>  <Molecule>
O=C(NCCO[N+](=O)[O-])c1cccnc1

>  <Qualitative Label>
n

$$$$
>  <Molecule>
O=C(Nc1nc(-c2ccccc2)cs1)c1cccc([N+](=O)[O-])c1

>  <Qualitative Label>
y

$$$$
>  <Molecule>
O=C(COc1ccc(Br)cc1)Nc1ccc([N+](=O)[O-])cn1

>  <Qualitative Label>
n

$$$$
>  <Molecule>
CCC(Sc1nc2n[nH]c(C)c2c(=N)n1-c1cccc(Cl)c1)C(=O)NCCOC (stereo not given)

>  <Qualitative Label>
y

$$$$
>  <Molecule>
Cc1ccc(C(=O)NC2CCCCC2)cc1

>  <Qualitative Label>
n

$$$$
>  <Molecule>
O=c1cc(-c2ccccc2)[nH]c2nc(Cl)ccc12

>  <Qualitative Label>
n

$$$$
>  <Molecule>
Cc1cc(C)n(C(=O)CCCCCCCCC(=O)n2nc(C)cc2C)n1

>  <Qualitative Label>
y

$$$$
>  <Molecule>
Cc1nc2nc(C)c(CCC(=O)NCCCN3CCN(c4cccc(Cl)c4)CC3)c(C)n2n1

>  <Qualitative Label>
n

$$$$
>  <Molecule>
O=C(CN1CCN(C2CCCCC2)CC1)NCCC1=CCCCC1

>  <Qualitative Label>
n

$$$$
>  <Molecule>
COc1cc(Br)c(C(C)NC(=O)c2cccc(Br)c2)cc1OC (stereo not given)

>  <Qualitative Label>
y

$$$$
>  <Molecule>
O=C1Nc2ccc([N+](=O)[O-])cc2C1(O)N1CCCCCC1 (stereo not given)

>  <Qualitative Label>
y

$$$$
>  <Molecule>
Cn1c(CCN2CCCCC2)nc2cc([N+](=O)[O-])ccc21

>  <Qualitative Label>
n

$$$$
>  <Molecule>
C/C(CCN1CCc2nc(-c3ccccc3)c(-c3ccccc3)cc2C1)=N\OC[C@@H](O)COCc1ccco1

>  <Qualitative Label>
y

$$$$
>  <Molecule>
N=C(N)SCCc1ccc(OCc2ccc([N+](=O)[O-])cc2)cc1

>  <Qualitative Label>
n

$$$$
>  <Molecule>
COc1ccc(CC(=O)Nc2cccc(/C(C)=N/NC(=O)c3cccc([N+](=O)[O-])c3)c2)cc1

>  <Qualitative Label>
y

$$$$
>  <Molecule>
Cc1nc2ncnn2c(C)c1CCC(=O)NC(C)c1ccc2c(c1)OCCO2 (stereo not given)

>  <Qualitative Label>
y

$$$$
>  <Molecule>
C/C(CCN1CCCCc2nc(C)c(C)cc21)=N\OC[C@@H](O)COCc1ccco1

>  <Qualitative Label>
y

$$$$
>  <Molecule>
O=C(NCCC1=CCCCC1)C1CCCN(c2nc3ccccc3o2)C1 (stereo not given)

>  <Qualitative Label>
y

$$$$
>  <Molecule>
O=C(CSc1nnc(-c2ccc(Cl)cc2Cl)n1C1CCCCC1)NC1CCS(=O)(=O)C1 (stereo not given)

>  <Qualitative Label>
y

$$$$
>  <Molecule>
O=C(NC1CCCCCC1)c1cccs1

>  <Qualitative Label>
y

$$$$
>  <Molecule>
COc1ccc(-c2cc(C3CCN(c4cc(Cl)nc(N)n4)CC3)[nH]n2)cc1

>  <Qualitative Label>
y

$$$$
>  <Molecule>
Cc1nc(S(=O)(=O)N2CCOCC2)c(C#N)c(C)c1Cl

>  <Qualitative Label>
n

$$$$
>  <Molecule>
Cc1ccc2nc(C3CCCN(C(=S)Nc4ccccc4C)C3)[nH]c2c1 (stereo not given)

>  <Qualitative Label>
y

$$$$
>  <Molecule>
COC(=O)[C@@]1(Cc2ccc(F)cc2)[C@H]2c3cc(C(=O)N4CCCC4)n(Cc4c(CO)[nH]cc(C)c4=O)c3C[C@H]2CN1C(=O)c1ccccc1

>  <Qualitative Label>
y

$$$$
>  <Molecule>
Cc1ccccc1-c1cc(NCc2cccnc2)ncn1

>  <Qualitative Label>
y

$$$$
>  <Molecule>
Cc1cc2nc(C3CCCN(C(=O)NCc4ccccc4)C3)[nH]c2cc1C (stereo not given)

>  <Qualitative Label>
y

$$$$
>  <Molecule>
CC(=O)NC(Cc1ccc(F)cc1)C(=O)O (stereo not given)

>  <Qualitative Label>
n

$$$$
>  <Molecule>
C/C(CCN1CCCc2nc(C)c(C)cc21)=N\OC[C@@H](O)COCc1ccco1

>  <Qualitative Label>
y

$$$$
>  <Molecule>
Cc1cc(C)n2c(SCC(=O)N(C)C3CCS(=O)(=O)C3)nnc2n1 (stereo not given)

>  <Qualitative Label>
n

$$$$
